- test-protocol: qHTS for Inhibitors of the Aldehyde Dehydrogenase Family (ALDH1A2, ALDH1A3, ALDH2, ALDH3A1) (AID 2061307); note: nearly all actives have a fitted effect of over 50% in size
- condition-summary: ALDH inhibition qHTS; series mostly up to 50.3 µM
Records with an inconclusive call do not appear. Calls of active or inactive are those of the source. Calls come from the whole dose curve; as a rule, active = well fitted inhibition curve with a large enough effect; inconclusive = small, poorly fitted or top-dose-only effect; inactive = no such curve, though single readings can be large or run the other way.
A correct response names exactly one class from 1 for active, 0 for inactive

compound	group
CN1CCN(CC(=O)N2c3ccc(S(=O)(=O)NCCNC(=O)OC(C)(C)C)cc3C(=O)Nc3cccnc32)CC1	0

Input: # outcome recorded in this test, key = CCOc1ccc(NC(=O)c2ccc(NC(=O)CN3C(=O)N(C)C4(CCCCC4)C3=O)cc2)cc1
Output: 1

Input: # outcome recorded in this test, key = Cc1ccccc1OCC(O)Cn1c(NCc2ccccc2)nc2c1c(=O)n(C)c(=O)n2C (configuration not stated)
Output: 0

###

- test-protocol: BET inhibitor-based combinations targeting novel dependencies in MECOM-rearranged (r) AML: AML-191 cell line (AID 2202236; note: nearly all actives have a fitted effect of over 35% in size)
- condition-summary: AML-191 viability, CellTiter-Glo luminescence, 48 h; series mostly up to 46 µM
- Protocol: Ecotropic viral insertion site 1 (EVI1) is located on chromosome 3q26.2 as part of the MECOM (MDS and EVI1 complex) locus. […] A collection of 2480 mechanistically annotated dugs (MIPE v5.0) was used to screen four 3q26.2 rearranged AML cell lines and three non-3q26.2 rearranged AML cell lines. […] Cell viability was determined by luminescence based, Cell Titer Glo assay (Promega). […] Luminescence readings were taken using a Viewlux (PerkinElmer) with a 2 s exposure time per plate. […]
Records with an inconclusive call do not appear. The source made the active and inactive calls. Calls come from the whole dose curve; as a rule, active = well fitted inhibition curve with a large enough effect; inconclusive = small, poorly fitted or top-dose-only effect; inactive = flat fitted curve, though single readings scatter.
A correct response names exactly one class from active, inactive

Study these solved cases before continuing.
compound	group
Cc1cc(C)c(S(=O)(=O)N(CCc2cccc(Br)c2)Cc2ccc(-c3cccc(S(C)(=O)=O)c3)cc2)c(C)c1	inactive
CN1C/C=C/CCOc2cccc(c2)-c2ccnc(n2)Nc2cccc(c2)C1	active
COc1ccc(S(=O)(=O)N(C(C)=O)c2ccccc2/C=C/c2cc[n+]([O-])cc2)cc1	active
CC(C)C(N)C(=O)OCC(CO)OCn1cnc2c(=O)[nH]c(N)nc21 (configuration not stated)	inactive

Input: # outcome recorded in this test, key = CC(C)C[C@H](NC(=O)[C@H](Cc1ccccc1)NC(=O)OCc1ccccc1)C(=O)C=O
Output: active

Input: # outcome recorded in this test, key = Cc1c(NC(=O)OCC2COCCN2)cn2ncnc(Nc3ccc4c(cnn4Cc4cccc(F)c4)c3)c12 (configuration not stated)
Output: active

Input: # outcome recorded in this test, key = C=CC(=O)Nc1ccc(F)c(-c2ncnc3[nH]cc(C(=O)OCC)c23)c1
Output: inactive

Input: # outcome recorded in this test, key = c1ccc(CNCc2ccc(CN3CCCNCCNCCCNCC3)cc2)nc1
Output: inactive

Input: # outcome recorded in this test, key = CS(=O)(=O)c1ccc(-c2cnc(NCc3ccco3)n3cnnc23)cc1
Output: inactive

Input: # outcome recorded in this test, key = O=C(NO)c1ccc(C2=Nc3ccccc3Oc3ccccc32)cc1
Output: active

Input: # outcome recorded in this test, key = Cc1c(F)ccc(C(=O)Nc2cc([N+](=O)[O-])ccc2N2CCN(C)CC2)c1Cl
Output: inactive

###

- test-protocol: BET inhibitor-based combinations targeting novel dependencies in MECOM-rearranged (r) AML: AML-191 cell line (AID 2202236)
- condition-summary: AML-191 viability, CellTiter-Glo luminescence, 48 h; series mostly up to 46 µM
Inconclusive results are not listed. Activity calls are given as the source filed them. Calls follow the shape of the dose curve; as a rule, active = well fitted inhibition curve with a large enough effect; inconclusive = small, poorly fitted or top-dose-only effect; inactive = flat fitted curve, though single readings scatter.
A correct response names exactly one class from active, inactive

Study these solved cases before continuing.
compound	group
CCN(CC)C(=S)SSC(=S)N(CC)CC	active
Nc1[nH]nc2nnc(-c3c(-c4ccccc4)nn4ccccc34)cc12	active

Input: # outcome recorded in this test, key = OC[C@H]1O[C@@H](S[C@@H]2O[C@H](CO)[C@H](O)[C@H](n3cc(-c4cccc(F)c4)nn3)[C@H]2O)[C@H](O)[C@@H](n2cc(-c3cccc(F)c3)nn2)[C@H]1O
Output: inactive

Input: # outcome recorded in this test, key = COCCOC(=O)N1CCN(S(=O)(=O)c2cc(F)c(Oc3ccc(Cl)cc3)c(F)c2)C(C(=O)NO)C1 (centres undefined)
Output: active

###

- test-protocol: qHTS for Inhibitors of the Aldehyde Dehydrogenase Family (ALDH1A2, ALDH1A3, ALDH2, ALDH3A1) (AID 2061307); note: nearly all actives have a fitted effect of over 50% in size
- condition-summary: ALDH inhibition qHTS; series mostly up to 50.3 µM
Inconclusive results are not listed. Active and inactive are the calls of the source. Calls come from the whole dose curve; as a rule, active = well fitted inhibition curve with a large enough effect; inconclusive = small, poorly fitted or top-dose-only effect; inactive = no such curve, though single readings can be large or run the other way.
A correct response names exactly one class from active, inactive

Study these solved cases before continuing.
CSc1ccc(-c2cnc(N3CCC(C(N)=O)CC3)s2)cc1 active
COc1cccc(NC(=O)c2cc3c(-c4ccc(Cl)cc4)nn(C)c3s2)c1 inactive
Fc1ccc(CN2CCC(N(CCc3ccccc3)Cc3ccccc3)CC2)cc1 inactive
Cc1ccc(-c2ccccc2)n1-c1ccccc1C(=O)O active

Input: # outcome recorded in this test, key = O=C(NCc1ccc(F)cc1)c1nc(-c2ccc(F)cc2)c2ccccn12
Output: inactive

Input: # outcome recorded in this test, key = O=C(O)c1csc(-n2[nH]c(-c3cc(F)ccc3F)cc2=O)n1
Output: inactive

###

- test-protocol: BET inhibitor-based combinations targeting novel dependencies in MECOM-rearranged (r) AML: UCSD-AML1 cell line (AID 2202235); note: nearly all actives have a fitted effect of over 40% in size; note: potency is the fitted concentration of half-maximal effect
- condition-summary: UCSD-AML1 AML cells viability, CellTiter-Glo, 48 h; series mostly up to 46 µM
Records with an inconclusive call do not appear. Calls of active or inactive are those of the source. Calls come from the whole dose curve; as a rule, active = well fitted inhibition curve with a large enough effect; inconclusive = small, poorly fitted or top-dose-only effect; inactive = no such curve, though single readings can be large or run the other way.
recorded-endpoint: Potency

compound	recorded-endpoint	result
CN[C@@H](C)C(=O)N[C@H](C(=O)N1CCC[C@H]1C(=O)Nc1snnc1-c1ccccc1)C1CCCCC1	Potency	1860 nM (active)
C[C@@H]1C[C@H](N)C[C@H](c2ccncc2NC(=O)c2ccc(F)c(-c3c(F)cccc3F)n2)C1	Potency	132 nM (active)
Cc1cc(C(=O)Nc2cc(Nc3ccc4c(/C=C/c5ccccn5)n[nH]c4c3)ccc2F)n(C)n1	Potency	6610 nM (active)
COc1ccc(-c2cc(C(O)C3CCCCN3)c3ccccc3n2)cc1 (stereo not given)	Potency	9340 nM (active)
CON(C)C(=O)N1N=C(c2cc(F)ccc2F)S[C@@]1(CCCN)c1ccccc1	Potency	10.5 nM (active)
COc1cc(OC)c(/C=C/S(=O)(=O)Cc2ccc(OC)c(OP(=O)(O)O)c2)c(OC)c1	Potency	118 nM (active)
COC(=O)N[C@@H](C)CNc1nccc(-c2cn(C(C)C)nc2-c2cc(Cl)cc(NS(C)(=O)=O)c2F)n1	Potency	2630 nM (active)
O=C(NCc1ccc(S(=O)(=O)c2cccc(C(F)(F)F)c2)cc1)c1cnc2[nH]ncc2c1	Potency	20.9 nM (active)

For each entry beneath this line, provide reported Potency.
1. CC[C@@]1(O)C[C@H](O[C@H]2C[C@H](N(C)C)[C@H](O[C@H]3C[C@H](O)[C@H](O[C@H]4CCC(=O)[C@H](C)O4)[C@H](C)O3)[C@H](C)O2)c2c(cc3c(c2O)C(=O)c2c(O)cccc2C3=O)[C@@H]1C(=O)OC
2. COc1ccccc1C(=O)Nc1cc2c(cc1N1CCNC[C@H]1C)n(C)c(=O)n2C
3. C=C1C(=O)OC2/C=C(/C)CC/C=C(/C)CCC12 (stereo not given)
4. CCCCC[C@H](O)/C=C/[C@H]1[C@H](O)CC(=O)[C@@H]1CCCCCCC(=O)O
5. CCCN(CCC)C(=O)C1=Cc2ccc(-c3ccc(C(=O)N4CCCC4)cc3)cc2N=C(N)C1

Output:
["2350 nM (active)", "inactive", "26300 nM (active)", "11800 nM (active)", "inactive"]

###

- measured-on: Retinaldehyde dehydrogenase 3 (Homo sapiens) (UniProt P47895)
- test-protocol: qHTS for Inhibitors of the Aldehyde Dehydrogenase Family (ALDH1A3) Primary screen (AID 2061315);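 note: plate controls were DMSO vehicle for no effect and reference inhibitor for full effect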
- condition-summary: ALDH inhibition qHTS; series mostly up to 56 µM
Inconclusive results are not listed. The source made the active and inactive calls. The call rests on the fitted dose curve; in most records, active means well fitted inhibition curve with a large enough effect; inconclusive means small, poorly fitted or top-dose-only effect; inactive means no such curve, though single readings can be large or run the other way.
recorded-endpoint: activity change, negative = inhibition

// known answers, use as guide
molecule	recorded-endpoint	result
CCOc1ccccc1OCCNC(C)Cc1ccc(OC)c(S(N)(=O)=O)c1 (stereo not given)	activity change, negative = inhibition	inactive
COc1cccc(NC(=S)N2CCN(c3cccc(C(F)(F)F)n3)CC2)n1	activity change, negative = inhibition	inactive
COc1cccc(N2C(=O)c3ccccc3C2=O)c1	activity change, negative = inhibition	inactive
CCOC(=O)c1ccc(NC(=O)CN2CCCCC2)cc1	activity change, negative = inhibition	inactive
O=[S+]([O-])(Nc1ccccc1)c1ccc(NCc2cccc(C(F)(F)F)c2Cl)cc1	activity change, negative = inhibition	inactive
C=C1C(=O)OC2CC3(C)C(O)C(=O)C=C(C)C3CC12 (stereo not given)	activity change, negative = inhibition	inactive

For each entry beneath this line, provide reported activity change, negative = inhibition.
1. CC1CC(=O)NN=C1c1ccc(NCC(C)(C)NCC(O)COc2cc(Cl)ccc2C#N)cc1 (stereo not given)
2. O=C(CN1C(=O)N/C(=C\c2cccn2-c2cccc(C(=O)O)c2)C1=O)Nc1ccc(Cl)cc1
3. CONC(=O)C[C@@H](C#N)NC(=O)[C@@H]1CCCN1C(=O)[C@@H](NC(=O)c1ccc(N)c(Cl)c1)C(C)(C)C

Output:
1. inactive
2. inactive
3. inactive

Input: Name the reported activity change, negative = inhibition value associated with the molecule O=C(NCc1nnc(-c2cc3ccccc3[nH]2)s1)c1ccccc1
Output: inactive
